Reference for the values: patent US20250313563A1

biological target: GSK3α (GST-full length GSK3α) (Homo sapiens (Human), UniProt P49840); assay: GSK3α TR-FRET kinase assay; assay type: biochemical; details: 1 nM GSK3α, 4 μM ATP, 30 minute preincubation, Table 16; read-out: GSK3-A TR-FRET BIOCHEMICAL (TR-FRET); IC50
Sequence (P49840 whole entry): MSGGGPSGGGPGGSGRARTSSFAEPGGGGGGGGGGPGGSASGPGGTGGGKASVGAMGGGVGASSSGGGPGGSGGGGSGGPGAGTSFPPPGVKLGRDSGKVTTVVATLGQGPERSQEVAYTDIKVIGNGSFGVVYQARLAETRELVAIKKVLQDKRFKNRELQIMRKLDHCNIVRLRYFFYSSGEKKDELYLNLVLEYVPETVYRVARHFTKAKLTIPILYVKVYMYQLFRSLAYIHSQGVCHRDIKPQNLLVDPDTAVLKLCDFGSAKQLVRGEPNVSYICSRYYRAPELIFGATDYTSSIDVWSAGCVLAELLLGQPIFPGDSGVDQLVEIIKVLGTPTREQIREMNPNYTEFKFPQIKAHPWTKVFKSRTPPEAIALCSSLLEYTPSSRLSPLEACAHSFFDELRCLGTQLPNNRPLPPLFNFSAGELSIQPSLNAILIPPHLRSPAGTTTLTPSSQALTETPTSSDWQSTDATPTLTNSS
pIC50: −log10 of the molar value.
observation.type: pIC50

Some entries whose results are on file:
CCC1(c2cccc(Oc3ncccn3)c2)C2=C(CC(C)(C)NC2=O)Nc2n[nH]c(Cl)c21 (stereo not drawn)
≥ 7.00
CCC1(c2cccc(-c3cnn4cccnc34)c2)C2=C(CC(C)(C)NC2=O)Nc2n[nH]cc21 (stereo not drawn)
5.30 to 6.00
Cn1cc([C@H]2CC[C@]3(CC2)C2=C(CC(C)(C)CC2=O)Nc2n[nH]cc23)cn1
5.30 to 6.00

Lab note: O=C1C[C@H](C(F)(F)F)CC2=C1C1(CCOCC1)c1c[nH]nc1N2 gave pIC50 of 6.00 to 7.00

Documented pIC50 of CCC1(c2cccc(-c3ccnc4c3CCCC4)c2)C2=C(CC(C)(C)C2=O)Nc2n[nH]cc21 (stereo not drawn) : ≥ 7.00

// recorded pIC50 for CC[C@]1(c2cccc(-c3ccncc3C(F)(F)F)c2)C2=C(CC(C)(C)C2=O)Nc2n[nH]cc21 : 5.30 to 6.00

Entry CCC1(c2cccc(N3CCc4cnccc4C3)c2)C2=C(CC(C)(C)CC2=O)Nc2n[nH]cc21 (stereo not drawn) — recorded pIC50 = 5.30 to 6.00

Documented pIC50 of CC[C@@]1(c2cccc(-c3cncn3C)c2)C2=C(CC(C)(C)CC2=O)Nc2n[nH]c(C)c21 : ≥ 7.00

The compound listed as CCC1(c2cccc(-c3ccn(C)n3)c2)C2=C(CC(C)(C)CC2=O)Nc2n[nH]c(C)c21 (stereo not drawn) [Compound 913039] shows pIC50 equal to 5.30 to 6.00

Input CCC1(c2cccc(N(C)c3ccnc(OC)c3)c2)C2=C(CC(C)(C)CC2=O)Nc2n[nH]cc21 (stereo not drawn) . Output pIC50: ≥ 7.00

Lookup result for CC[C@]1(c2cccc(-c3c(C)nn(C)c3C)c2)C2=C(CC(C)(C)CC2=O)Nc2n[nH]c(C)c21 ; measured pIC50: ≥ 7.00

Sample CC[C@]1(c2cccc(C(F)(F)F)c2)C2=C(CCN(c3cnn(C)c3C)C2=O)Nc2n[nH]cc21 ; pIC50 observed: ≥ 7.00

Documented pIC50 of CC[C@@]1(c2cccc(C(F)(F)F)c2)C2=C(CC(C)(C)C2=O)Nc2n[nH]cc21 : ≥ 7.00

For this compound ( CCC1(c2cccc(-c3cc(OC)ncc3F)c2)C2=C(CC(C)(C)CC2=O)Nc2n[nH]cc21 (stereo not drawn) ), measured pIC50 is ≥ 7.00

Measured pIC50 of C[C@@H]1CCC[C@]12C1=C(CC(C)(C)CC1=O)Nc1n[nH]cc12 : 5.30 to 6.00
